Hello, the source for this data is patent US12319655B2, in case you need it.

molecular target: B-Raf kinase (SEQ. ID NO: 2) (Homo sapiens (Human)); test: Biochemical Assay for B-Raf (1); settings: Table J, assay version (1); read-out: BRAF (1) IC50
Sequence (P15056 416-766): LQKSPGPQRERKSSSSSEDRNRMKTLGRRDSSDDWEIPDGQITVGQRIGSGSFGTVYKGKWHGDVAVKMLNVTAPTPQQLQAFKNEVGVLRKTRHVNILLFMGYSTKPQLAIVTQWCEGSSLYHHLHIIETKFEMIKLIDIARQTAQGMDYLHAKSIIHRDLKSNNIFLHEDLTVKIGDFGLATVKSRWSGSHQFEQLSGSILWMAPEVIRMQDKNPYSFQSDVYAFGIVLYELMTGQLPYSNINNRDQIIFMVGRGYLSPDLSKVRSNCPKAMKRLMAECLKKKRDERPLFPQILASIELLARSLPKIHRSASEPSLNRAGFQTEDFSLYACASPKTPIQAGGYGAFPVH
Endpoint: IC50

Use the examples below as a reference point.
{"Molecule": "CC(=O)Nc1cc(-c2cccc(-c3cc(NC(=O)c4ccnc(C(F)(F)F)c4)ccc3C)c2)ncn1", "IC50": "≤ 0.1 µM"}
{"Molecule": "CNc1cc(-c2cncc(-c3cc(NC(=O)c4ccnc(C(C)(C)C#N)c4)ccc3C)n2)ccn1", "IC50": "0.1 to 0.5 µM"}
{"Molecule": "Cc1ncc(NC(=O)c2ccnc(C(C)(C)C#N)c2)cc1-c1cccc(-c2cc(NC(=O)C3CC3)ncn2)c1", "IC50": "≤ 0.1 µM"}
{"Molecule": "CNC(=O)c1cc(-c2ccnc(-c3cc(NC(=O)c4ccnc(C(C)(C)C#N)c4)cnc3C)n2)ccn1", "IC50": "0.5 to 1 µM"}
{"Molecule": "Cc1ccc(NC(=O)C2CCN(C)C2)cc1-c1cccc(-c2cc(NC(=O)C3CC3)ncn2)c1 (centres unmarked)", "IC50": "1 to 10 µM"}

Record summary for Cc1ncc(NC(=O)c2cn(C(C)C)nn2)cc1-c1nccc(-c2ccnc(NC(=O)C3CC3)c2)n1 : reported IC50 = ≤ 0.1 µM

Record summary for Cc1ccc(NC(=O)c2ccnc(C(F)(F)F)c2)cc1-c1cc(-c2ccnc(NC(=O)C3CC3)c2)n(C)c(=O)c1 : reported IC50 = ≤ 0.1 µM

Record summary for CNC(=O)c1cc(-c2cccc(-c3cc(NC(=O)c4ccnc(C(C)(C)C#N)c4)ccc3C)c2)ncn1 : reported IC50 = ≤ 0.1 µM

Record summary for CC(=O)Nc1cc(-c2cccc(-c3cc(NC(=O)c4ccnc(C(F)(F)F)c4)ccc3C)c2)ccn1 : reported IC50 = ≤ 0.1 µM

Record summary for Cc1ccc(NC(=O)c2ccnc(C(C)(C)C#N)c2)cc1-c1cncc(-c2ccnc(NC(=O)C3CC3)c2)n1 : reported IC50 = ≤ 0.1 µM

Record summary for Cc1ccc(NC(=O)c2ccnc(C(F)(F)F)c2)cc1-c1cncc(-c2ccnc(NC(=O)CN(C)C)c2)n1 : reported IC50 = ≤ 0.1 µM

Record summary for CC(=O)Nc1cc(-c2ccnc(-c3cc(NC(=O)c4ccnc(C(F)(F)F)c4)ccc3C)n2)ccn1 : reported IC50 = ≤ 0.1 µM

Record summary for CNC(=O)c1cc(-c2cncc(-c3cc(NC(=O)c4cc(C(F)(F)F)cc(CN(C)C)n4)ccc3C)n2)ccn1 : reported IC50 = 0.5 to 1 µM

Record summary for Cc1ccc(NC(=O)c2ccnc(C(C)(C)C#N)c2)cc1-c1cnnc(-c2ccnc(NC(=O)C3CC3)c2)c1 : reported IC50 = ≤ 0.1 µM

Record summary for CC(=O)Nc1cc(-c2cc(-c3cc(NC(=O)c4ccnc(C(F)(F)F)c4)ccc3C)cc(C3CC3)n2)ccn1 : reported IC50 = ≤ 0.1 µM

Record summary for Cc1ccc(NC(=O)c2ccnc(C(C)(C)C#N)c2)cc1-c1cccc(-c2cc(NC(=O)C3(C)CC3)ncn2)c1 : reported IC50 = 0.5 to 1 µM

Record summary for Cc1ncc(NC(=O)C2CCOCC2)cc1-c1ccnc(-c2ccnc(NC(=O)C3CC3)c2)n1 : reported IC50 = 1 to 10 µM

Record summary for COC(C)(C)C(=O)Nc1cc(-c2cc(-c3cc(NC(=O)c4ccnc(C(C)(C)C#N)c4)ccc3C)ccn2)ccn1 : reported IC50 = 0.1 to 0.5 µM

Record summary for CNC(=O)c1cc(-c2cncc(-c3cc(NC(=O)c4cc(C(F)(F)F)ccn4)ccc3C)n2)ccn1 : reported IC50 = ≤ 0.1 µM

Record summary for Cc1ccc(NC(=O)c2cnn(C(C)(C)C)c2)cc1-c1cc(-c2ccnc(NC(=O)C3CC3)c2)cnn1 : reported IC50 = ≤ 0.1 µM
